- ASSAY_INFO: log P by HPLC on a reversed-phase column (C 18), EEC Directive 79/831 Annex V.A8
- Assay type: physicochemical
- TEST_PARAMETERS: HPLC, reversed-phase column (C 18), 40° C.; 0.1% aqueous formic acid and acetonitrile, linear gradient 10% to 90% acetonitrile
PROPERTY_NAME: logP

Cc1ccc(C2(C)CC2)c(CN(C(=O)c2c(C)nn(C)c2Cl)C2CC2)c1 | 3.96
CCC1(c2ccc(C(F)(F)F)cc2CN(C(=O)c2c(C)nn(C)c2F)C2CC2)CC1 | 4.34
CCC1(c2ccccc2CN(C(=S)c2cn(C)nc2C(F)F)C2CC2)CC1 | 4.37
CCC1(c2cc(C)c(F)cc2CN(C(=O)c2c(C)nn(C)c2F)C2CC2)CC1 | 4.26
